Listed here are compounds together with their documented pEC50.
# experimental-system: Sphingosine 1-phosphate receptor 4 (Homo sapiens)
# Sequence (O95977 whole entry): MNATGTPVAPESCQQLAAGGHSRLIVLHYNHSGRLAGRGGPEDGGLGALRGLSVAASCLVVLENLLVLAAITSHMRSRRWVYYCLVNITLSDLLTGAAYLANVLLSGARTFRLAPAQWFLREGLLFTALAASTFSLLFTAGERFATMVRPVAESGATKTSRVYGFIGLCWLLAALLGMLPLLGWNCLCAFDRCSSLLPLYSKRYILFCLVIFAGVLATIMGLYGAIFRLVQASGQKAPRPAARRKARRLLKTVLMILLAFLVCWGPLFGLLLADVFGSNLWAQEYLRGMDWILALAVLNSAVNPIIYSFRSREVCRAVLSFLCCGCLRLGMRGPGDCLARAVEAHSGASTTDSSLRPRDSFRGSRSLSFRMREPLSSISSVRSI
# protocol: Agonist activity at human S1P4 receptor expressed in CHO cells assessed as induction of [S35]GTPgammaS binding
Please note pEC50 is a logarithmic value: minus log10 of concentration in mol/L. Answer with that number alone.

Worked examples, 3 compounds total:
input-smiles: CCCCCCCOc1ccc(CC[C@](C)(N)COP(=O)(O)O)cc1
pEC50: 8.24

input-smiles: CCCCCCCOc1ccc(CC[C@](C)(N)CCc2nnn[nH]2)cc1
pEC50: 6.17

input-smiles: CCCCCCCOc1ccc(CC[C@](C)(N)CCC(=O)O)cc1
pEC50: 6.10

Item under review: CCCCCCCOc1ccc(CC[C@](C)(N)C(=O)O)cc1 . Reported pEC50?
6.85

Recorded pEC50 for CCCCCCCCc1ccc(CC[C@@](N)(CO)COP(=O)(O)O)cc1 , please?
9.15

What pEC50 value was documented for this compound, CCCCCCCOc1ccc(CC[C@](C)(N)CCP(=O)(O)O)cc1 ?
7.72

Need pEC50 of CCCCCCCOc1ccc(CC[C@](C)(N)CC(=O)O)cc1 , thanks.
6.92
